Reported (%) Relative Activity (substrate disappearance in the presence of PcpB) values for a set of molecules
Biological target: PcpB (Sphingobium chlorophenolicum, UniProt P42535)
Construct: endogenous in cells; host or cells: Flavobacterium sp; Strain ATCC 39723, PCP-induced; enzyme purified in house from the native bacterium
Sequence (P42535 2-538): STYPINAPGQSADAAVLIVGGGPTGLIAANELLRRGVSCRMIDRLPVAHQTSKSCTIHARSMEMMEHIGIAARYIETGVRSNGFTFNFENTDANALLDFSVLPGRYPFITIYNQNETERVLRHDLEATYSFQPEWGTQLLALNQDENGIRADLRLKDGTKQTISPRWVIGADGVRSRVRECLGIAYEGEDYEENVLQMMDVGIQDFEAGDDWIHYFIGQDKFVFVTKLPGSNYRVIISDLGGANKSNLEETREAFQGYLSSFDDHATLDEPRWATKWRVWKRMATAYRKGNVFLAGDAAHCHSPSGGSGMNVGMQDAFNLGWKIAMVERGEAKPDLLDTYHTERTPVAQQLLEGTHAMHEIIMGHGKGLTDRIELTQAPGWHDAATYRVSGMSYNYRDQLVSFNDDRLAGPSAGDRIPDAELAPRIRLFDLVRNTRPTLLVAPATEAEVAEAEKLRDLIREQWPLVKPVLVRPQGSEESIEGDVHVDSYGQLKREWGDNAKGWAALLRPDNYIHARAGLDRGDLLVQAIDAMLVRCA
Test: Substrate disappearance in the presence of PcpB (substrate range)
Assay type: biochemical, Flavobacterium sp. Strain ATCC 39723
Conditions: 10 nmoles substrate, 40 nmoles NADPH, PcpB 500 μg/ml, 80 mM potassium phosphate pH 7.5, 0.5% Tween 20, 23° C.; PCP assumed 100%
reported-endpoint: (%) Relative Activity (substrate disappearance in the presence of PcpB)

> print(dat)
                                    molecule  recorded.value
 1  Oc1c(Cl)cc(Cl)cc1Cl [2,4,6-Trichlorophenol, 2,4,6-trichlorophenol]              29
 2  O=[N+]([O-])c1cc(Br)c(O)c(Br)c1 [2,6-Dibromo-4-nitrophenol]              62
 3    Oc1c(I)cc(I)cc1I [2,4,6-Triiodophenol]             172
 4  Oc1c(Cl)c(Cl)c(Cl)c(Cl)c1Cl [Pentachlorophenol]             100
 5  Oc1ccc(Cl)c(Cl)c1Cl [2,3,4-Trichlorophenol]              29
 6  Nc1cc(Cl)c(O)c(Cl)c1 [4-Amino-2,6-dichlorophenol]              93
 7  Oc1cc(Cl)cc(Cl)c1 [3,5-Dichlorophenol, 3,5dichlorophenol]               0
 8  Oc1c(F)c(F)c(F)c(F)c1F [Pentafluorophenol]              47
 9  N#Cc1cc(Br)c(O)c(Br)c1 [3,5-Dibromo-4-hydroxybenzonitrile]             591
10  Oc1c(Br)cc(Br)cc1Br [2,4,6-Tribromophenol]              35
11  N#Cc1cc(I)c(O)c(I)c1 [3,5-Diiodo-4-hydroxybenzonitrile]             835
12      Oc1cccc(Cl)c1Cl [2,3-Dichlorophenol]              24
13       Oc1c(Br)cccc1Br [2,6-Dibromophenol]             605
14  Oc1c(Cl)cccc1Cl [2,6-Dichlorophenol, 2,6-dichlorophenol]             344
15  Oc1c(Cl)c(Cl)cc(Cl)c1Cl [2,3,5,6-Tetrachlorophenol]            1212
16  Oc1cc(Cl)c(Cl)c(Cl)c1 [3,4,5-Trichlorophenol, 3,4,5trichlorophenol]               0
17  Oc1c(Cl)ccc(Cl)c1Cl [2,3,6-Trichlorophenol, 2,3,6-trichlorophenol]             302
